- TARGET_OF_ASSAY: T1, human 5MP1-CTD phosphomimetic mutant (5MP1-CTD-EE) (human)
- T1 chain: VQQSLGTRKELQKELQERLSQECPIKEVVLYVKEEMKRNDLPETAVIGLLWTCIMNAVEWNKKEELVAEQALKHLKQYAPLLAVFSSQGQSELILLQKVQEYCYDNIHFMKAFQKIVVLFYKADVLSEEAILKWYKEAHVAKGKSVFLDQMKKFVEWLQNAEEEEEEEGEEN
- PROCEDURE_SUMMARY: NMR titration
METRIC: pKd
Please report pKd as the negative decimal logarithm of the molar concentration, giving only the number.

1) DTRKKDASDDLDDLNFFNQKKKKKKTKKIFDIDEAEEGVKDLKIES (domain or fragment, UniProt P20042 60-105, looked up) [human eIF2β-K2 (K-box 2 with surrounding segments)] = 5.25

Next, consider the following binder.
Task: Would you kindly share the measured pKd for MSGDEMIFDPTMSKKKKKKKKPFMLDEEGDTQTEETQPSETKEVE (domain or fragment, UniProt P20042 1-45, looked up) [human eIF2β-K1 (K-box 1 with surrounding segments)] ?
Output: 4.96
